Hi there, I'd appreciate the recorded MIC E. coli D31 J. Wilson for every entry that follows.
# Test system: E. coli D31 J. Wilson
# conditions: ¼ Muller-Hinton medium
One number for each entry, in µg/mL.

Worked examples follow.
> print(dat)
                                substance  quantitative.readout
1  H-GKPRPYSPRPTSHPRPIRV-OH [compound 89]                     4
2   H-GNNRPVYIPQPRPPHPRL-OH [compound 87]                     1

Below: the item to evaluate.
Given the substance H-VDKPPYLPRPRPPRRIYNRN-OH [compound 16] , what is its reported MIC E. coli D31 J. Wilson?
32
